Target: Platelet glycoprotein 4 (Rattus norvegicus)
Sequence (Q07969 whole entry): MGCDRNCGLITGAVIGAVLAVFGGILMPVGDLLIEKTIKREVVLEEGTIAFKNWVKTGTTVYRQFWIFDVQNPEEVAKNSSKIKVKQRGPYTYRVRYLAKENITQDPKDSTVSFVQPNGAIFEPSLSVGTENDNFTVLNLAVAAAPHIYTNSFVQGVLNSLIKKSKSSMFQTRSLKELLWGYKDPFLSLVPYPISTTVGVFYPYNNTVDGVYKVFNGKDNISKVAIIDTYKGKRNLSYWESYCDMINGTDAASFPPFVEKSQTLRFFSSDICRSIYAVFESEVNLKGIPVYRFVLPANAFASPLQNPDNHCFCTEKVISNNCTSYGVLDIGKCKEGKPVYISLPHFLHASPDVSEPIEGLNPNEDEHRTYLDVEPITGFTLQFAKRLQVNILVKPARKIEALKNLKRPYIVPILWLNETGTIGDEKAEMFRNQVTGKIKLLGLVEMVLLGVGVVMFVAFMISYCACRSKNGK
Experiment: Inhibition of photoactivatable [125I]-Tyr-Bpa-Ala-hexarelin binding to CD36 in Sprague-Dawley rat heart membranes after 60 mins by SDS-PAGE analysis relative to H-His-D-Trp-Ala-aza(3-hydroxy)Phe-D-Phe-Lys-NH2
Type: cell membranes
Conditions: Membrane
Starred links: 1 amine or outer side, 2 acyl side, 3 side chain; linkers in the order of their positions; H or OH if unused. Non-standard residues stand in square brackets, D forms with d. Residues, ends and D or L forms follow the SMILES beside them. azaTyr = O=C(N(Cc1ccc(O)cc1)N[*:1])[*:2]; azaPhe = O=C(N(Cc1ccccc1)N[*:1])[*:2]
attribute.measured: fold change (FC)
Give your answer as a number; write no unit.

Indicate the recorded fold change (FC) value for this compound: CCCOc1ccc(CN(NC(=O)[C@H](C)NC(=O)[C@@H](Cc2c[nH]c3ccccc23)NC(=O)[C@@H](N)Cc2cnc[nH]2)C(=O)N[C@H](Cc2ccccc2)C(=O)N[C@@H](CCCCN)C(N)=O)cc1
17.1

More entries:
Give recorded fold change (FC). C[C@H](N)C(=O)N[C@H](Cc1c[nH]c2ccccc12)C(=O)N[C@@H](C)C(=O)NN(Cc1ccccc1)C(=O)N[C@H](Cc1ccccc1)C(=O)N[C@@H](CCCCN)C(N)=O (H-A[dW]A[azaPhe][dF]K-NH2)
1.5

Name the recorded fold change (FC) of the item C[C@H](N)C(=O)N[C@H](Cc1c[nH]c2ccccc12)C(=O)N[C@@H](C)C(=O)NN(Cc1ccc(Cl)cc1)C(=O)N[C@H](Cc1ccccc1)C(=O)N[C@@H](CCCCN)C(N)=O in your answer.
5.7

// Input: C[C@H](NC(=O)[C@@H](Cc1c[nH]c2ccccc12)NC(=O)[C@@H](N)Cc1cnc[nH]1)C(=O)NN(Cc1ccc(F)cc1)C(=O)N[C@H](Cc1ccccc1)C(=O)N[C@@H](CCCCN)C(N)=O . Output its fold change (FC) only.
4.6

Indicate the recorded fold change (FC) value for this compound: Cc1cccc(C)c1CN(NC(=O)[C@H](C)NC(=O)[C@@H](Cc1c[nH]c2ccccc12)NC(=O)[C@@H](N)Cc1cnc[nH]1)C(=O)N[C@H](Cc1ccccc1)C(=O)N[C@@H](CCCCN)C(N)=O
5.1

Please report the measured fold change (FC) for C[C@H](N)C(=O)N[C@H](Cc1c[nH]c2ccccc12)C(=O)N[C@@H](C)C(=O)NN(Cc1ccc(O)cc1)C(=O)N[C@H](Cc1ccccc1)C(=O)N[C@@H](CCCCN)C(N)=O (H-A[dW]A[azaTyr][dF]K-NH2)
3.1

Answer with reported fold change (FC) of Cc1cc(F)cc(C)c1CN(NC(=O)[C@H](C)NC(=O)[C@@H](Cc1c[nH]c2ccccc12)NC(=O)[C@@H](N)Cc1cnc[nH]1)C(=O)N[C@H](Cc1ccccc1)C(=O)N[C@@H](CCCCN)C(N)=O
5

Give fold change (FC) for the following compound: C[C@H](NC(=O)[C@@H](Cc1c[nH]c2ccccc12)NC(=O)[C@@H](N)Cc1cnc[nH]1)C(=O)NN(Cc1ccc(Br)cc1)C(=O)N[C@H](Cc1ccccc1)C(=O)N[C@@H](CCCCN)C(N)=O
7.8

Write down fold change (FC) measured for item C[C@H](NC(=O)[C@@H](Cc1c[nH]c2ccccc12)NC(=O)[C@@H](N)Cc1cnc[nH]1)C(=O)NN(Cc1ccccc1)C(=O)N[C@H](Cc1ccccc1)C(=O)N[C@@H](CCCCN)C(N)=O (H-H[dW]A[azaPhe][dF]K-NH2)
2.8

Please give measured fold change (FC) of the following entry: COc1ccc(CN(NC(=O)[C@H](C)NC(=O)[C@@H](Cc2c[nH]c3ccccc23)NC(=O)[C@@H](N)Cc2cnc[nH]2)C(=O)N[C@H](Cc2ccccc2)C(=O)N[C@@H](CCCCN)C(N)=O)cc1
3.7

###

Target: Platelet glycoprotein 4 (Rattus norvegicus)
Test: Inhibition of photoactivatable [125I]-Tyr-Bpa-Ala-hexarelin binding to CD36 in Sprague-Dawley rat heart membranes after 60 mins by SDS-PAGE analysis
Format: cell membranes, Membrane
Starred links: 1 amine or outer side, 2 acyl side, 3 side chain; linkers in the order of their positions; H or OH if unused. Non-standard residues stand in square brackets, D forms with d. Residues, ends and D or L forms follow the SMILES beside them. azaTyr = O=C(N(Cc1ccc(O)cc1)N[*:1])[*:2]
attribute.measured: pIC50
Worth noting: pIC50 values are minus log10 of concentrations stated in mol/L.

For the compound COc1ccc(CN(NC(=O)[C@H](C)NC(=O)[C@@H](Cc2c[nH]c3ccccc23)NC(=O)[C@@H](N)Cc2cnc[nH]2)C(=O)N[C@H](Cc2ccccc2)C(=O)N[C@@H](CCCCN)C(N)=O)cc1 , give its reported pIC50.
5.12

Dear colleague, please send me the reported pIC50 for C[C@H](NC(=O)[C@@H](Cc1c[nH]c2ccccc12)NC(=O)[C@@H](N)Cc1cnc[nH]1)C(=O)NN(Cc1ccc(F)cc1)C(=O)N[C@H](Cc1ccccc1)C(=O)N[C@@H](CCCCN)C(N)=O when you can.
5.22

Check the records and state pIC50 for C[C@H](N)C(=O)N[C@H](Cc1c[nH]c2ccccc12)C(=O)N[C@@H](C)C(=O)NN(Cc1ccc(O)cc1)C(=O)N[C@H](Cc1ccccc1)C(=O)N[C@@H](CCCCN)C(N)=O (H-A[dW]A[azaTyr][dF]K-NH2)
5.04

Further cases:
Specify pIC50 for CCCOc1ccc(CN(NC(=O)[C@H](C)NC(=O)[C@@H](Cc2c[nH]c3ccccc23)NC(=O)[C@@H](N)Cc2cnc[nH]2)C(=O)N[C@H](Cc2ccccc2)C(=O)N[C@@H](CCCCN)C(N)=O)cc1 and stop.
5.78

Query pIC50 for C[C@H](NC(=O)[C@@H](Cc1c[nH]c2ccccc12)NC(=O)[C@@H](N)Cc1cnc[nH]1)C(=O)NN(Cc1ccc(O)cc1)C(=O)N[C@H](Cc1ccccc1)C(=O)N[C@@H](CCCCN)C(N)=O (H-H[dW]A[azaTyr][dF]K-NH2)
5.72

###

Target: Platelet glycoprotein 4 (Mus musculus) (UniProt Q08857)
Sequence (Q08857 whole entry): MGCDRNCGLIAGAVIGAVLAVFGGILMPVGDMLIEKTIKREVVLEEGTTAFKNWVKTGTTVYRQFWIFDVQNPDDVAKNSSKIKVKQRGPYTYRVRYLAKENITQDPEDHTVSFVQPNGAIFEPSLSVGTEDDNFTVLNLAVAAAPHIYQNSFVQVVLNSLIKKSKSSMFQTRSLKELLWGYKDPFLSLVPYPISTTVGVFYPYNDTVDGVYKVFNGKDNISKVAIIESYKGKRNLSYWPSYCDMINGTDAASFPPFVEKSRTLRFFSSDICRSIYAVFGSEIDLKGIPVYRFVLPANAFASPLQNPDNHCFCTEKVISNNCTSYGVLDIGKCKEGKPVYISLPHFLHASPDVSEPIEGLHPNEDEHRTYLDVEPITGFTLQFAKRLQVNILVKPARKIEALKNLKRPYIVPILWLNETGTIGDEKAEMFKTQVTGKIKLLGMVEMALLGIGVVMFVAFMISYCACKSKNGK
Assay: Modulation of CD36 in mouse J774A.1 cells assessed as inhibition of R-FSL1-induced NO over production at 1 uM preincubated for 1 hr followed by overnight R-FSL1 stimulation by DAN-fluorescence assay relative to control
Format: cell-based
The source made the active and inactive calls. No cut-off for these calls is given here.
attribute.measured: inhibition

Using Platelet glycoprotein 4 (Mus musculus) (UniProt Q08857) as the test system, report measured inhibition of COc1cc(Cl)cc(Cl)c1CN(NC(=O)[C@H](C)NC(=O)[C@@H](Cc1c[nH]c2ccccc12)NC(=O)[C@@H](N)Cc1cnc[nH]1)C(=O)N[C@H](Cc1ccccc1)C(=O)N[C@@H](CCCCN)C(N)=O .
inactive

Provide inhibition, recorded with Platelet glycoprotein 4 (Mus musculus) (UniProt Q08857), of C[C@H](N)C(=O)N[C@H](Cc1c[nH]c2ccccc12)C(=O)N[C@@H](C)C(=O)NN(Cc1ccc(I)cc1)C(=O)N[C@H](Cc1ccccc1)C(=O)N[C@@H](CCCCN)C(N)=O
inactive

Report its inhibition with Platelet glycoprotein 4 (Mus musculus) (UniProt Q08857) as the test system: COc1ccc(CN(NC(=O)[C@H](C)NC(=O)[C@@H](Cc2c[nH]c3ccccc23)NC(=O)[C@H](C)N)C(=O)N[C@H](Cc2ccccc2)C(=O)N[C@@H](CCCCN)C(N)=O)cc1
Active

Report the value of inhibition obtained on Platelet glycoprotein 4 (Mus musculus) (UniProt Q08857) for C[C@H](NC(=O)[C@@H](Cc1c[nH]c2ccccc12)NC(=O)[C@@H](N)Cc1cnc[nH]1)C(=O)NN(Cc1ccc(Br)cc1)C(=O)N[C@H](Cc1ccccc1)C(=O)N[C@@H](CCCCN)C(N)=O .
Active
